// provenance: the supplement of paper PMC10065799

target: c-Src SH2; experiment: SH2 binding enrichment of the phosphorylated peptide, bacterial display (enrichment ratio); higher = better substrate or ligand; peptides without Tyr show the background;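 note: peptide library displayed on the E. coli surface as eCPX fusions, selected cells deep-sequenced, score is each peptide's frequency after selection divided by its frequency in the input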
ENDPOINT: SH2 binding enrichment

Examples from the recorded data:
RESIDUE STRING | TARGET OF ASSAY | SH2 binding enrichment
TLCLCYKETEE [ATP8B1_Y658_I661T] | c-Src SH2 | 0.496
DLLNSYIENEG [HSPA4L_Y600] | c-Src SH2 | 0.693
REDVFYTSKLW [AKR1C2_Y81_I79V] | c-Src SH2 | 0.511

A = ARVANYHRDGP [CAT_Y386_Q387H]
B = ALVDTYCRHNF [HLA-DRB1_Y107_A103L_YF]
Request: Between A and B , whose recorded SH2 binding enrichment is greater? # reply format: chosen label
Response: B

---

Recorded phosphorylation enrichment, one value per entry.
tested on: c-Abl (mouse); assay: phosphorylation enrichment, bacterial display (enrichment ratio); higher = better substrate or ligand; peptides without Tyr show the background
In your answer, state the number alone without any accompanying words.

Examples from the recorded data:
RESIDUE STRING | TARGET OF ASSAY | phosphorylation enrichment
DRTVHYVDEKG [IFT140_Y216_G212R] | c-Abl (mouse) | 0.46
PINLYYLMDLS [ITGB2_Y131_D128N] | c-Abl (mouse) | 1.44
TGILLHGLASR [QARS1_Y57_Y57H] | c-Abl (mouse) | 0.528
QDEHGYISRCF [HSPB1_Y133] | c-Abl (mouse) | 0.861

Request: Which measured phosphorylation enrichment value corresponds to AHAGEYGAEAL [HBA1_Y25] ?
Response: 0.629

Request: Which measured phosphorylation enrichment value corresponds to LIGRGYDDPEV [HSPA9_Y128_R127G] ?
Response: 0.756

Request: Which measured phosphorylation enrichment value corresponds to QMQNPYSSHSS [MUC13_Y501_R503S] ?
Response: 0.446

Request: Which measured phosphorylation enrichment value corresponds to PVQAAYQNVVA [HBB_Y131_K133N] ?
Response: 0.591

Request: Which measured phosphorylation enrichment value corresponds to AKRKNYAPVTM [CFAP47_Y557_A561T] ?
Response: 0.454

---

Recorded phosphorylation enrichment, one value per entry.
target: MERTK (UniProt Q12866); assay: phosphorylation enrichment, bacterial display (enrichment ratio); higher = better substrate or ligand; peptides without Tyr show the background
Sequence (Q12866 whole entry, looked up): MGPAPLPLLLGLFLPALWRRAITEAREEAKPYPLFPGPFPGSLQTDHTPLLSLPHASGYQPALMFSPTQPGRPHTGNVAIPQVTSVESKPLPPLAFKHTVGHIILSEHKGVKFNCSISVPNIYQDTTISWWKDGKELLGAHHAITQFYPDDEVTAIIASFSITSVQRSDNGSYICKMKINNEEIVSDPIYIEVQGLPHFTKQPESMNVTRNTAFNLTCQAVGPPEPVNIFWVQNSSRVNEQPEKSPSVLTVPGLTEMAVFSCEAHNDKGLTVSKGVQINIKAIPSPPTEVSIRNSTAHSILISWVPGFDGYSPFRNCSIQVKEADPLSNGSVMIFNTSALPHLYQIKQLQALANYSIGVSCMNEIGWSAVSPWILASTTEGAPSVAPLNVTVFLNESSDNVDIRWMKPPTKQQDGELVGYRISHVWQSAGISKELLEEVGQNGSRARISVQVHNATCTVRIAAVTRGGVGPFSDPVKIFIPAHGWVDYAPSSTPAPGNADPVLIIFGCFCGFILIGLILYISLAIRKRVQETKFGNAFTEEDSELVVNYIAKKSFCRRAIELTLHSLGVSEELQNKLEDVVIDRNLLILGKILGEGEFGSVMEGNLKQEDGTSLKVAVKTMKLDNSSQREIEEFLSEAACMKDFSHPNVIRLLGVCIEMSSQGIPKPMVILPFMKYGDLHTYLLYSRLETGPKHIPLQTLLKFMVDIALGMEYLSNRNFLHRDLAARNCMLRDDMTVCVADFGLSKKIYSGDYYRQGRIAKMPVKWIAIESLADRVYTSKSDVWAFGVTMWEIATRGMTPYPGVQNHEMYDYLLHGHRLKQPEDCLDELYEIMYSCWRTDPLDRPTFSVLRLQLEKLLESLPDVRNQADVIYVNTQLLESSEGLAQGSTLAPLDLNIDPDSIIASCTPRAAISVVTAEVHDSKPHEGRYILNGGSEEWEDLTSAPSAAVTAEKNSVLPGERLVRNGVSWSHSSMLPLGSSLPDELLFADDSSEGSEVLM
In your answer, state the number alone without any accompanying words.

Examples from the recorded data:
RESIDUE STRING | ENDPOINT | EXPERIMENTAL VALUE
NTSKMYIPHTD [EXPH5_Y782_D777N] | phosphorylation enrichment | 0.462
QFFQGYFNNNF [ZNF236_Y644_S643G] | phosphorylation enrichment | 0.58
TEYIQYVRRKN [MAX_Y73_M74V] | phosphorylation enrichment | 0.647
EYLHKYKGFKI [SYNE1_Y6953_Q6951H] | phosphorylation enrichment | 0.453
NVPILYTASQA [CTNNA1_Y222] | phosphorylation enrichment | 0.687
PRQRRYVFFFS [PTEN_Y174_S170R_YF] | phosphorylation enrichment | 0.574

Request: Give recorded phosphorylation enrichment with MERTK (UniProt Q12866) for the following sequence: EKSREYHRLYE [PIK3R1_Y463_D464H]
Response: 0.525

Request: Give recorded phosphorylation enrichment with MERTK (UniProt Q12866) for the following sequence: EQLQSYQVEII [KRT33A_Y268_A270V]
Response: 0.513

Request: Give recorded phosphorylation enrichment with MERTK (UniProt Q12866) for the following sequence: KTKLGYSPLHQ [ANK1_Y735]
Response: 0.399

Request: Give recorded phosphorylation enrichment with MERTK (UniProt Q12866) for the following sequence: DLNATYCTIQG [U2SURP_Y634_R635C]
Response: 2.36

Request: Give recorded phosphorylation enrichment with MERTK (UniProt Q12866) for the following sequence: IVRSLYEDQED [VHL_Y185_L188Q]
Response: 0.482

Request: Give recorded phosphorylation enrichment with MERTK (UniProt Q12866) for the following sequence: DDKEFYSVHNK [MET_Y1235_Y1230D_YF]
Response: 0.422

Request: Give recorded phosphorylation enrichment with MERTK (UniProt Q12866) for the following sequence: SEKIVYGHVDD [ACO2_Y71_L74V]
Response: 0.383

Request: Give recorded phosphorylation enrichment with MERTK (UniProt Q12866) for the following sequence: ARVANYHRDGP [CAT_Y386_Q387H]
Response: 0.385

Request: Give recorded phosphorylation enrichment with MERTK (UniProt Q12866) for the following sequence: PVQAAYQNVVA [HBB_Y131_K133N]
Response: 0.591

Request: Give recorded phosphorylation enrichment with MERTK (UniProt Q12866) for the following sequence: NFDRIYIFHLR [MYOF_Y1137_V1136I_YF]
Response: 0.524

Request: Give recorded phosphorylation enrichment with MERTK (UniProt Q12866) for the following sequence: ADARMYGVLPW [PLP1_Y207]
Response: 3.38

Request: Give recorded phosphorylation enrichment with MERTK (UniProt Q12866) for the following sequence: RRETPYGGGGG [FUS_Y526_R524T]
Response: 0.721

Request: Give recorded phosphorylation enrichment with MERTK (UniProt Q12866) for the following sequence: GGRKGYGGFSR [RECQL5_Y478_D480G]
Response: 0.512
